# systemName: UniProt:P33535
# Sequence (P33535 whole entry): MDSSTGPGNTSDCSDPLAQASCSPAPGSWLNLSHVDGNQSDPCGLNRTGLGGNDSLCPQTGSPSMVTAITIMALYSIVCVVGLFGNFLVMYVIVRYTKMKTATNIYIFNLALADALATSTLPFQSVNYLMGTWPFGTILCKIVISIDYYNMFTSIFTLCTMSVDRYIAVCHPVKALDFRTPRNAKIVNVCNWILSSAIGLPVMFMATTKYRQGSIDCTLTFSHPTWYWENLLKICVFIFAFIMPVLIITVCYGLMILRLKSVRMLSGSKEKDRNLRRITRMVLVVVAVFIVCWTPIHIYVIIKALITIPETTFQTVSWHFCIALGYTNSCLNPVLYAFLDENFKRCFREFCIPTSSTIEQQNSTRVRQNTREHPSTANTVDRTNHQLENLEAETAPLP
readout: Ki (µM)

[
  {
    "smilesData": "CC[C@H](C)[C@H](NC(=O)[C@H](CCC(=O)O)NC(=O)[C@H](Cc1ccccc1)NC(=O)[C@@H](C)NC(=O)[C@@H](N)Cc1ccc(O)cc1)C(=O)N[C@H](C(=O)NCC(N)=O)[C@@H](C)CC",
    "readoutValue": 3.19
  },
  {
    "smilesData": "CC[C@H](C)[C@H](NC(=O)[C@H](CCC(=O)O)NC(=O)[C@]1(NC(=O)[C@@H](C)NC(=O)[C@@H](N)Cc2ccc(O)cc2)CCc2ccccc2C1)C(=O)N[C@H](C(=O)NCC(N)=O)[C@@H](C)CC",
    "readoutValue": 0.731
  },
  {
    "smilesData": "CC[C@H](C)[C@H](NC(=O)[C@H](CC(=O)O)NC(=O)[C@H](Cc1ccccc1)NC(=O)[C@@H](C)NC(=O)[C@@H](N)Cc1ccc(O)cc1)C(=O)N[C@H](C(=O)NCC(N)=O)[C@@H](C)CC",
    "readoutValue": 3.22
  }
]
